B1: Azoarcus group I ribozyme (parent)
chain: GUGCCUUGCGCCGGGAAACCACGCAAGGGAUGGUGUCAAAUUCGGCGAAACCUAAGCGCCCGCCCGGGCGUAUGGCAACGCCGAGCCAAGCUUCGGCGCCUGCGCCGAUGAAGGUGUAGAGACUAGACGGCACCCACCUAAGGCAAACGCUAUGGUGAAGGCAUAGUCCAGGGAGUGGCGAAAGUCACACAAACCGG

- Variants of: B1
- experiment.summary: reverse-splicing fitness (ratio to wild type); higher = more active; in vitro selection; Mg2+ level not given
property: reverse-splicing fitness
I'd appreciate a reply containing only the number, no unit.

A111C A120U A145G C150A C169G U176C	0.00682
A120U A145G C150G C169A	0.00998
C82G A120G C150G C169A	0.00981
C82G A111U A120C A145U C150A U176G	0.00705
C82A A111U A145C C150A C169U U176G	0.00705

Consider the record given below.
Record summary for C82G A111C A120C A145G C150A U176G : reported reverse-splicing fitness = 0.00711

These data points were gathered from the RNAGym collection of RNA variant scans (doi:10.1093/molbev/msab373).
